Molecular target: Human autotaxin enzyme (Homo sapiens, UniProt Q13822)
Construct: purchased R&D System
Test: Evaluation of autotaxin inhibitor, Method B (Test Example 2): TG-mTMP fluorescence
Assay type: biochemical
Settings: Assay Method B (Test Example 2), human autotaxin; read-out: Inhibitory Activity (autotaxin enzyme inhibitory activity, IC50 class)
pIC50: −log10 of the molar value.
Consider the following compounds and their measured pIC50 readings.

According to the records, this compound Cc1cc(=O)n2cc(-c3ccc(Cl)cc3)nc2n1C(C)c1cccc(C(F)(F)F)c1 (centres unmarked) [Compound 108] displays pIC50 of 7.00 to 8.00

// sample N#Cc1ccc(-c2cn3c(=O)cc(N4CCC(C(=O)O)CC4)n(CCCC(F)(F)F)c3n2)cc1 [Compound 285] , its pIC50 was > 8.00

The compound O=C(O)C1CCN(c2cc(=O)n3cc(-c4ccc(Cl)cc4)nc3n2CCCC(F)(F)F)CC1 [Compound 283] showed pIC50 equal to > 8.00

----------
Target: Human autotaxin enzyme (Homo sapiens, UniProt Q13822)
Construct: purchased R&D System
Test: Evaluation of autotaxin inhibitor, Method B (Test Example 2): TG-mTMP fluorescence
Format: biochemical
Conditions: Assay Method: Method B (Test Example 2); read-out: Inhibitory Activity (Enzyme Inhibitory Activity, IC50)
pIC50: −log10 of the molar value.
Endpoint: pIC50

Value of pIC50 reported for the compound "Cc1cc(=O)n2cc(-c3ccc(Cl)cc3)nc2n1CCCC(F)(F)F" is 7.00 to 8.00

Value of measured pIC50 for the entry "CCCCn1c(C)cc(=O)n2cc(-c3ccc(Cl)cc3)nc12" : 7.00 to 8.00

Recorded result, "Cc1cc(=O)n2cc(-c3ccc(Cl)cc3)nc2n1CCC(C)C" , pIC50: 7.00 to 8.00

Form field pIC50, entry "CC(=O)CCCn1c(C)cc(=O)n2cc(-c3ccc(Cl)cc3)nc12" : 6.00 to 7.00

----------
Target: Human autotaxin enzyme (Homo sapiens)
Construct: purchased R&D System
Assay: Evaluation of autotaxin inhibitor, Method C (Test Example 3): 18:0 Lyso PC, choline assay, Resorufin fluorescence
Format: biochemical
Conditions: Assay Method C (Test Example 3), human autotaxin, 18:0 Lyso PC substrate; read-out: Inhibitory Activity (autotaxin enzyme inhibitory activity, IC50 class)
// reported IC50 per item

{"Compound": "CCCCCn1c(-c2ccc(C(=O)NCCNC(C)=O)cc2)cc(=O)n2cc(-c3ccc(Cl)cc3)nc12", "IC50": "10 to 100 nM"}
{"Compound": "CCCCCn1c(N2CCC[C@H]2C(=O)N[C@@H](CO)C(=O)OC)cc(=O)n2cc(-c3ccc(Cl)cc3)nc12", "IC50": "100 to 1000 nM"}
{"Compound": "CCCCCn1c(N2CCC[C@H]2C(=O)N[C@@H](CC2CCCCC2)C(=O)O)cc(=O)n2cc(-c3ccc(Cl)cc3)nc12", "IC50": "< 10 nM"}
{"Compound": "CCCCCn1c(N2CCC[C@H]2C(=O)O)cc(=O)n2cc(-c3ccc(Cl)cc3)nc12", "IC50": "> 1000 nM"}
{"Compound": "CCCCCn1c(N2CCC[C@H]2C(=O)N(C)CC(=O)N(C)CC(=O)OC)cc(=O)n2cc(-c3ccc(Cl)cc3)nc12", "IC50": "10 to 100 nM"}

Measured IC50, CCCCCn1c(OCC2CCCN2C(=O)OC(C)(C)C)cc(=O)n2cc(-c3ccc(Cl)cc3)nc12 (stereo not drawn) : 100 to 1000 nM

----------
Biological target: Human autotaxin enzyme (Homo sapiens)
Construct: purchased R&D System
Assay: Evaluation of autotaxin inhibitor, Method C (Test Example 3): 18:0 Lyso PC, choline assay, Resorufin fluorescence
Assay type: biochemical
Conditions: Assay Method C, human autotaxin, 18:0 Lyso PC substrate; read-out: Inhibitory Activity
Measured IC50 values are reported for all entries that follow.

{"Molecule": "C#CCNC(=O)C1CCCCN1c1cc(=O)n2cc(-c3ccc(Cl)cc3)nc2n1CCCCC (stereo not drawn)", "IC50": "10 to 100 nM"}

The recorded IC50 for entry "CCCCCn1c(N2CCCC[C@H]2C)cc(=O)n2cc(-c3ccc(Cl)cc3)nc12" equals 100 to 1000 nM

For reference, reported IC50 for CCCCCn1c(N2CCC[C@H]2C(=O)NC(C(N)=O)c2ccccc2)cc(=O)n2cc(-c3ccc(Cl)cc3)nc12 (stereo partly drawn) stands at 10 to 100 nM

Record "CN(CCC#N)C(=O)Cc1cn(CCCC(F)(F)F)c2nc(-c3ccc(Cl)cc3)cn2c1=O" . Reported IC50: 100 to 1000 nM

----------
Target: Human autotaxin enzyme (Homo sapiens, UniProt Q13822)
Construct: purchased R&D System
Assay: Evaluation of autotaxin inhibitor, Method C (Test Example 3): 18:0 Lyso PC, choline assay, Resorufin fluorescence
Format: biochemical
Details: Assay Method C (Test Example 3), human autotaxin, 18:0 Lyso PC substrate; read-out: Inhibitory Activity (autotaxin enzyme inhibitory activity, IC50 class)
Procedure: (Method C) Evaluation of Autotaxin Inhibitor Solution B containing 100 mM Tris-HCl buffer (pH7.5), 150 mM NaCl, 5 mM MgCl2 and 0.05% Triton X-100 was prepared. […] The fluorescent dye Resorufin, which was produced by the reaction, was detected. The fluorescence was detected using ViewLux (PerkinElmer, Inc.) with an excitation wavelength of 531 nm and a fluorescence wavelength of 598 nm. […]
pIC50: −log10 of the molar value.
Endpoint: pIC50

# count of solved cases: 3
{"Record smiles": "CCCCCn1c(OCC2(F)COC2)cc(=O)n2cc(-c3ccc(Cl)cc3)nc12", "pIC50": "7.00 to 8.00"}
{"Record smiles": "CCCCCn1c(N2CCC[C@H]2C(=O)N[C@@H](Cc2ccccc2)C(=O)O)cc(=O)n2cc(-c3ccc(Cl)cc3)nc12", "pIC50": "> 8.00"}
{"Record smiles": "Cc1cc(=O)n2cc(-c3ccc(Cl)cc3)nc2n1CCCCCC#N", "pIC50": "7.00 to 8.00"}

Documented pIC50 of "CCCCCn1c(-c2cccc(NS(C)(=O)=O)c2)cc(=O)n2cc(-c3ccc(Cl)cc3)nc12" : 6.00 to 7.00

Looking up "O=C(NCCN1CCOCC1)c1ccc(-c2cc(=O)n3cc(-c4ccc(Cl)cc4)nc3n2CCCC(F)(F)F)cc1" , I see its pIC50 listed as 7.00 to 8.00

Memo: "CCCCCn1c(N2CC[C@@H](C(=O)O)C2)cc(=O)n2cc(-c3ccc(Cl)cc3)nc12" , reported pIC50: 7.00 to 8.00

Item: "CCCCCn1c(-c2ccc(C(=O)Nc3ccc(OC)cc3)cc2)cc(=O)n2cc(-c3ccc(Cl)cc3)nc12" | pIC50: 6.00 to 7.00

Noted for "CCCCCn1c(-c2ccc(C(=O)NCCN(C)C)cc2)cc(=O)n2cc(-c3ccc(Cl)cc3)nc12" : its pIC50 reads 7.00 to 8.00

For record "CCCCCn1c(-c2ccc(C(=O)NC(CO)CO)cc2)cc(=O)n2cc(-c3ccc(Cl)cc3)nc12" the listed pIC50 is > 8.00

Data point: "CN(C)CCNC(=O)c1ccc(-c2cc(=O)n3cc(-c4ccc(C#N)cc4)nc3n2CCCC(F)(F)F)cc1" ; pIC50 = 7.00 to 8.00

----------
Catalogue of IC50 values
Target: Human autotaxin enzyme (Homo sapiens, UniProt Q13822)
Construct: purchased R&D System
Experiment: Evaluation of autotaxin inhibitor, Method C (Test Example 3): 18:0 Lyso PC, choline assay, Resorufin fluorescence
Type: biochemical
Details: Assay Method C (Test Example 3), human autotaxin, 18:0 Lyso PC substrate; read-out: Inhibitory Activity (autotaxin enzyme inhibitory activity, IC50 class)

Observed IC50, Human autotaxin enzyme (Homo sapiens, UniProt Q13822), CCCCCn1c(-c2ccc(C(=O)NCc3ccc([N+](=O)[O-])cc3)cc2)cc(=O)n2cc(-c3ccc(Cl)cc3)nc12 [Compound 518] : 100 to 1000 nM

Human autotaxin enzyme (Homo sapiens, UniProt Q13822) IC50 of CCCCCn1c(N2CCC[C@H]2C(=O)N[C@@H](Cc2ccc3ccccc3c2)C(=O)O)cc(=O)n2cc(-c3ccc(Cl)cc3)nc12 [Compound 726] is < 10 nM

// molecule CCCCCn1c(N2CCC[C@H](C(=O)NCCC(=O)O)C2)cc(=O)n2cc(-c3ccc(Cl)cc3)nc12 [Compound 616] , assay Human autotaxin enzyme (Homo sapiens, UniProt Q13822), IC50 value: < 10 nM

Record CCCCCn1c(-c2cncnc2)cc(=O)n2cc(-c3ccc(Cl)cc3)nc12 [Compound 409] / Human autotaxin enzyme (Homo sapiens, UniProt Q13822), IC50 recorded as 10 to 100 nM

// returns IC50 for CCCCCn1c(-c2ccc(C(=O)NCCc3ccccn3)cc2)cc(=O)n2cc(-c3ccc(Cl)cc3)nc12 [Compound 508] with Human autotaxin enzyme (Homo sapiens, UniProt Q13822); value = 10 to 100 nM

Human autotaxin enzyme (Homo sapiens, UniProt Q13822) IC50 of CCCCCn1c(N2CCC3(CN(C(=O)OC(C)(C)C)C3)C2)cc(=O)n2cc(-c3ccc(Cl)cc3)nc12 [Compound 313] is 100 to 1000 nM

Result for CCCCCn1c(-c2ccc(C(=O)NC3COC3)cc2)cc(=O)n2cc(-c3ccc(Cl)cc3)nc12 [Compound 490] , tested on Human autotaxin enzyme (Homo sapiens, UniProt Q13822), IC50: < 10 nM

Entry source: patent US20160002247A1
